Target: FGF14:Nav1.6 C-tail complex (Homo sapiens, UniProt Q92915+Q9UQD0)
Construct: polymerase chain reaction (PCR) amplification of the FGF14 open reading frame (nt 1–855); C-terminal fragment of Nav1.6 (amino acids 1763–1976) fused with CD4ΔC-tail (amino acids 1–395); expressed in transfected cells
Sequence (Q92915 1-252 isoform Q92915-2): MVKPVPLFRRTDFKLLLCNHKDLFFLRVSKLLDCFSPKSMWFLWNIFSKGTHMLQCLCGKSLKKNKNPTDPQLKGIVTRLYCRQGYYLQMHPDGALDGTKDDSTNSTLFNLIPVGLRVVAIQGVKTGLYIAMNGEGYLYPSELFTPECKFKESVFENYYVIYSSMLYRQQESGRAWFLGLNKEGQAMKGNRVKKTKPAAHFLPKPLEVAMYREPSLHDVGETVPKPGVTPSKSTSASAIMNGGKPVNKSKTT
Sequence (Q9UQD0 1763-1976 limits assumed): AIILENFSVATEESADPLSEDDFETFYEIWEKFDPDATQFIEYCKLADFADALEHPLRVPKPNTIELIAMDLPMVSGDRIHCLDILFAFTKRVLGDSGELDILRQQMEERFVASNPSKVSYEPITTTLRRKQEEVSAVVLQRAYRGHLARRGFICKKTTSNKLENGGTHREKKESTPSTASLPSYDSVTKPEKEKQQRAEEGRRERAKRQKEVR
Experiment: Split-luciferase complementation assay (LCA) in Clone V double stable HEK293 cells
Assay type: cell-based
Settings: CC_NCI screening, biological replicate Set 1; normalized to on-plate 0.3% DMSO controls
Tag: Y if measured Split Luciferase Assay Z-score Set 1 is not below -2, N if it is.

COMPOUND: CS(=O)(=O)c1ccc(C2=C(c3ccccc3)C(=O)OC2)cc1
CLASSIFICATION: Y

COMPOUND: CN(C)C[C@@H]1CCn2cc(c3ccccc32)C2=C(C(=O)NC2=O)c2cn(c3ccccc23)CCO1 [LY 333531, reference compound]
CLASSIFICATION: N

COMPOUND: O=C(NCCCNc1nc(Nc2cccc(NC(=O)N3CCCC3)c2)ncc1I)c1cccs1
CLASSIFICATION: N

Kindly consider the entry below.
# bool: Split Luciferase Assay Z-score Set 1 of `O=NN(CCCl)C(=O)NC1CCCCC1` >= -2
Y

====

Tested on: Clone V cells
Task for the reader: assign each of the following compounds its reported Toxicity Assay % Fluor (CTB cell viability fluorescence).
Give your result as the value with the unit written after it.

Solved entries (count: 5):
COMPOUND: Nc1ncnc2c1c(-c1cnc3[nH]ccc3c1)nn2C1CCCC1 [PP121, reference compound]
RESULT: 111.23%

COMPOUND: NC(=O)c1ccc2nc(-c3ccc(Oc4ccc(Cl)cc4)cc3)[nH]c2c1
RESULT: 112.91%

COMPOUND: O=C1NC(=O)/C(=C/c2ccc(-c3ccc(F)cc3O)o2)S1
RESULT: 99.49%

COMPOUND: CC(=O)OCCN1C(=O)c2c(C)nc3ccc(S(=O)(=O)N4CCOCC4)cc3c2C1=O
RESULT: 108.95%

COMPOUND: COc1ccc(OC)c2c(=S)c3ccccc3[nH]c12
RESULT: 109.17%

Quick batch: Toxicity Assay % Fluor (CTB cell viability fluorescence) for everything below.
1. NC(=O)c1ncn([C@@H]2O[C@H](CO)[C@@H](O)[C@H]2O)c1N
2. Cc1nc2c(c(=O)[nH]1)CSCC2

1. 108.29%
2. 106.28%

====

Field: Split Luciferase Assay Z-score Set 2. Provide a value for each of the compounds that follow.
Target: FGF14:Nav1.6 C-tail complex (Homo sapiens, UniProt Q92915+Q9UQD0)
Construct: polymerase chain reaction (PCR) amplification of the FGF14 open reading frame (nt 1–855); C-terminal fragment of Nav1.6 (amino acids 1763–1976) fused with CD4ΔC-tail (amino acids 1–395); expressed in transfected cells
Assay: Split-luciferase complementation assay (LCA) in Clone V double stable HEK293 cells
Format: cell-based
Details: CC_NCI screening, biological replicate Set 2; normalized to on-plate 0.3% DMSO controls
Where a name gives a salt, the structure may show the parent alone.

COMPOUND: Nc1ncn([C@H]2C[C@H](O)[C@@H](CO)O2)c(=O)n1 [Decitabine, reference compound]
Split Luciferase Assay Z-score Set 2: 7.95

COMPOUND: CC(=O)[C@]1(O)Cc2c(O)c3c(c(O)c2[C@@H](O[C@H]2C[C@H](N)[C@H](O)[C@H](C)O2)C1)C(=O)c1ccccc1C3=O [Idarubicin hydrochloride]
Split Luciferase Assay Z-score Set 2: -0.69

--- query ---
The compound Clc1ccc(C(c2ccccc2Cl)C(Cl)Cl)cc1 (stereo not drawn) on FGF14:Nav1.6 C-tail complex (Homo sapiens, UniProt Q92915+Q9UQD0): Split Luciferase Assay Z-score Set 2 was -5.17
